Reported Conc. values follow for various sequences
- Protocol: Solubility Characteristics of COPs
- Assay type: physicochemical
Give just the number in µg/mL; leave the unit off.

Example entries and their recorded answers appear below.
[
  {
    "Biopolymer sequence": "PNVNKIREALAQTHSAIAVIIGIKDLDAFRHYDGRTIIQRDNGYQPNYHAVNIVGYSNAQGVD [AllerDM1.62]",
    "Units symbol": "µg/mL",
    "Test result": 2500
  },
  {
    "Biopolymer sequence": "LAEQELVDCASQHGCHGDTIPRGIEYIQHNGVVQESYYRYVAREQSCRRPNAQRFGISNYCQIYPPNVNKIRE [AllerDM1.5]",
    "Units symbol": "µg/mL",
    "Test result": 1700
  },
  {
    "Biopolymer sequence": "PNVNKIREALAQTHSAIAVIIGIKDLDAFRHYDGRTIIQRDNGYQPNYHAVNIVGYSNAQGVDYWIVRNSWDT [AllerDM1.6]",
    "Units symbol": "µg/mL",
    "Test result": 800
  }
]

Consider the additional sequence presented here.
In: Could you share which Conc. value was measured for SIDGLEVDVPGIDPNACHYMKCPLVKGQQYDIKYTWNVPKIAPKSENVVVTVKVMGDDGVLACAIATHAKIRD [AllerDM2.2] ?
Out: 1700
